Entry source: ChEMBL document CHEMBL4354805

- experiment: Clearance in Wistar Han rat at 1 mg/kg, iv
- Assay type: ADME, organism-based
- test.conditions: in vivo
endpoint.name: clearance (mL/min/kg)

molecular.string | endpoint.name | unit.label | meas.value
CNC1=N[C@@H]2[C@H](F)[C@H](O)[C@@H](CF)O[C@@H]2S1 | clearance | mL/min/kg | 14.4
CNC1=N[C@@H]2[C@H](F)[C@H](O)[C@@H](CO)O[C@@H]2S1 | clearance | mL/min/kg | 36.8

###

- target.of.assay: Protein O-GlcNAcase (Rattus norvegicus, UniProt Q8VIJ5)
- Sequence (Q8VIJ5 whole entry): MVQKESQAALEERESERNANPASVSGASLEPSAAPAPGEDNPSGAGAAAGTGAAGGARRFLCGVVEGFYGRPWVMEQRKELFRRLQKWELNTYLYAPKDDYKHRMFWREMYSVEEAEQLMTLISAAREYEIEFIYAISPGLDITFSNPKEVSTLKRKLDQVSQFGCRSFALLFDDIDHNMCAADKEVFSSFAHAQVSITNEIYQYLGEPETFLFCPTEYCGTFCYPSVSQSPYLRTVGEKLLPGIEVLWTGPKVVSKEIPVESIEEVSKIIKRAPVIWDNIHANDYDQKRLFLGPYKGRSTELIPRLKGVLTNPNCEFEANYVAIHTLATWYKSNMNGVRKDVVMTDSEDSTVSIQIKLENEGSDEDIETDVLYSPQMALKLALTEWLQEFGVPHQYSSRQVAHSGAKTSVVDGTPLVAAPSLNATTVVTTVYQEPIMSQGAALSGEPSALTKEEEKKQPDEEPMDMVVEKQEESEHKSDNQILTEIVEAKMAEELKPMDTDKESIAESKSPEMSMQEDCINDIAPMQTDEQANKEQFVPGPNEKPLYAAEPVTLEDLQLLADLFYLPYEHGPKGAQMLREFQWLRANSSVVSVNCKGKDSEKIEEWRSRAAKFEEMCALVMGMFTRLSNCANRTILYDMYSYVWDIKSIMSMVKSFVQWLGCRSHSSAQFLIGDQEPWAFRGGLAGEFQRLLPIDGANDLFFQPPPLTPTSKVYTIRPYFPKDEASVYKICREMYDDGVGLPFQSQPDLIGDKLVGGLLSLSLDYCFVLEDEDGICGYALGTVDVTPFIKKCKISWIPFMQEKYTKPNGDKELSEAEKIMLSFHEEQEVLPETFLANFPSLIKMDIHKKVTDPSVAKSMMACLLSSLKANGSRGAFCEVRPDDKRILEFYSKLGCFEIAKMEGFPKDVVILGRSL
- experiment: Inhibition of OGA in rat PC12 cells assessed as OGlcNAcylated protein level incubated for 24 hrs by ELISA
- Type: cell-based
pEC50: −log10 of the molar value.
If the reported pEC50 equals or exceeds 7, assign True. If not, assign False.

molecular.string | target.of.assay | cat
CCCNC1=N[C@@H]2[C@@H](F)[C@H](O)[C@@H](CO)O[C@@H]2S1 | Protein O-GlcNAcase (Rattus norvegicus, UniProt Q8VIJ5) | False
CCNC1=N[C@@H]2[C@@H](O)[C@H](O)[C@@H](C(F)F)O[C@@H]2S1 | Protein O-GlcNAcase (Rattus norvegicus, UniProt Q8VIJ5) | True
CNC1=N[C@@H]2C[C@H](O)[C@@H](CO)O[C@@H]2S1 | Protein O-GlcNAcase (Rattus norvegicus, UniProt Q8VIJ5) | True
CCCNC1=N[C@@H]2C[C@H](O)[C@@H](CO)O[C@@H]2S1 | Protein O-GlcNAcase (Rattus norvegicus, UniProt Q8VIJ5) | False
CCNC1=N[C@@H]2[C@@H](O)[C@H](O)[C@@H](CF)O[C@@H]2S1 | Protein O-GlcNAcase (Rattus norvegicus, UniProt Q8VIJ5) | False
CN(C)C1=N[C@@H]2[C@@H](O)[C@H](O)[C@@H](CF)O[C@@H]2S1 | Protein O-GlcNAcase (Rattus norvegicus, UniProt Q8VIJ5) | False
CNC1=N[C@@H]2[C@@H](F)[C@H](O)[C@@H](CO)O[C@@H]2S1 | Protein O-GlcNAcase (Rattus norvegicus, UniProt Q8VIJ5) | False
CCCNC1=N[C@@H]2[C@@H](O)[C@H](O)[C@@H](C(F)F)O[C@@H]2S1 | Protein O-GlcNAcase (Rattus norvegicus, UniProt Q8VIJ5) | True
CCN(C)C1=N[C@@H]2[C@@H](O)[C@H](O)[C@@H](CO)O[C@@H]2S1 | Protein O-GlcNAcase (Rattus norvegicus, UniProt Q8VIJ5) | True
